- protocol-description: Vasodilator activity assessed as ability to relax phenylephrine-induced contraction of Wistar rat aortic strips
endpoint-label: log10(EC50) (log10 of the value in nM)
A value of 2 here means EC50 of 100 in nM, since values are log10.

molecule	number
CN(C)Cc1no[n+]([O-])c1C(N)=O	3.49

Field: log10(EC50). Fill in for each record below.
1. COc1cc(CCCO[N+](=O)[O-])cc(OC)c1O
2. Cc1c(C)c2c(c(C)c1O)CCC(C)(COc1no[n+]([O-])c1S(=O)(=O)c1ccccc1)O2 (configuration not stated)
3. NC(=O)c1c(CO)no[n+]1[O-]
4. CC(C)(C)c1cc(CCCO[N+](=O)[O-])cc(C(C)(C)C)c1O
5. Cc1c(C)c2c(c(C)c1O)CCC(C)(COCCCO[N+](=O)[O-])O2 (configuration not stated)
6. CC(C)(C)c1cc(CCCOc2no[n+]([O-])c2S(=O)(=O)c2ccccc2)cc(C(C)(C)C)c1O
7. CN(CCCc1cc(C(C)(C)C)c(O)c(C(C)(C)C)c1)Cc1no[n+]([O-])c1C(N)=O

Given back:
[3.63, 1.64, 3.80, 4.60, 3.08, 2.04, 2.61]

Field: log10(EC50). Fill in for each record below.
1. Cc1c(C)c2c(c(C)c1O)CCC(C)(CN(C)Cc1no[n+]([O-])c1C(N)=O)O2 (configuration not stated)
2. O=[N+]([O-])OCCCc1ccc(O)cc1 [4-(3-Nitrooxy-propyl)-phenol]
3. O=S(=O)(c1ccccc1)c1c(OCCCc2ccc(O)cc2)no[n+]1[O-]

Given back:
[3.18, 3.00, 1.08]

Asked: Which value of log10(EC50) has been reported for `COc1cc(CCCOc2no[n+]([O-])c2S(=O)(=O)c2ccccc2)cc(OC)c1O` in the records?
Given back: 1.34

###

- protocol-description: Vasodilator activity assessed as ability to relax phenylephrine-induced contraction of Wistar rat aortic strips in presence of 1 uM ODQ
Threshold 7 µM. EC50 below it: yes (1). EC50 at it or above: no (0).

compound	label-value
CN(CCCc1cc(C(C)(C)C)c(O)c(C(C)(C)C)c1)Cc1no[n+]([O-])c1C(N)=O	no (0)

Asked: Record Cc1c(C)c2c(c(C)c1O)CCC(C)(COCCCO[N+](=O)[O-])O2 (configuration not stated) : is its EC50 strictly below 7 µM?
Given back: no (0)

Asked: Record `CC(C)(C)c1cc(CCCOc2no[n+]([O-])c2S(=O)(=O)c2ccccc2)cc(C(C)(C)C)c1O` : is its EC50 strictly below 7 µM?
Given back: yes (1)

Asked: Record Cc1c(C)c2c(c(C)c1O)CCC(C)(CN(C)Cc1no[n+]([O-])c1C(N)=O)O2 (configuration not stated) : is its EC50 strictly below 7 µM?
Given back: no (0)

Asked: Record Cc1c(C)c2c(c(C)c1O)CCC(C)(COc1no[n+]([O-])c1S(=O)(=O)c1ccccc1)O2 (configuration not stated) : is its EC50 strictly below 7 µM?
Given back: yes (1)

Asked: Record `COc1cc(CCCOc2no[n+]([O-])c2S(=O)(=O)c2ccccc2)cc(OC)c1O` : is its EC50 strictly below 7 µM?
Given back: yes (1)

Asked: Record `O=S(=O)(c1ccccc1)c1c(OCCCc2ccc(O)cc2)no[n+]1[O-]` : is its EC50 strictly below 7 µM?
Given back: yes (1)
